Molecular target: 11β-hsd-1 enzyme (Homo sapiens, UniProt P28845)
Sequence (P28845 whole entry, species assumed): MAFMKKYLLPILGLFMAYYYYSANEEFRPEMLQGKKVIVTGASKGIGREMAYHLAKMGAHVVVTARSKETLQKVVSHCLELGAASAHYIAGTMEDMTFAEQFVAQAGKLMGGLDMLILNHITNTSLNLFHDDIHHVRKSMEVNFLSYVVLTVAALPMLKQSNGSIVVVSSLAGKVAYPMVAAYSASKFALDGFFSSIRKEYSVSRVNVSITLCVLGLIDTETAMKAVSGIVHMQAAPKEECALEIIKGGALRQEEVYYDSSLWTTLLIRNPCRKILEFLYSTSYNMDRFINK
Experiment: 11β-hsd-1 enzyme assay, percentage of inhibition (3H-cortisone to cortisol, radio-HPLC)
Format: biochemical
Settings: 0.1 uM; read-out: % inh @ 0.1 uM
Class key for inhibition at 0.1 µM values: L: < 50%; M: ≥ 50% and < 90%; H: ≥ 90%

| molecule | target-under-test | assigned-category |
| --- | --- | --- |
| Cc1cccc(NS(=O)(=O)c2ccc(-c3ccccc3C(F)(F)F)cc2)n1 [Example 122] | 11β-hsd-1 enzyme (Homo sapiens, UniProt P28845) | M |
| Cc1cccc(NS(=O)(=O)c2ccc(-c3ccc4ccccc4c3)cc2)n1 [Example 137] | 11β-hsd-1 enzyme (Homo sapiens, UniProt P28845) | M |
| Cc1c(Cl)cccc1S(=O)(=O)Nc1cccc(CC(=O)N2CCCC(C)(C)C2)n1 [Example 28] | 11β-hsd-1 enzyme (Homo sapiens, UniProt P28845) | L |
| Cc1ccc(-c2ccc(S(=O)(=O)Nc3cccc(C)n3)cc2)cc1 [Example 124] | 11β-hsd-1 enzyme (Homo sapiens, UniProt P28845) | M |
| CCN(CC)C(=O)Cc1cccc(NS(=O)(=O)c2sc3ccc(Cl)cc3c2C)n1 [Example 19] | 11β-hsd-1 enzyme (Homo sapiens, UniProt P28845) | H |
| O=S(=O)(Nc1cccc(CN2CCOCC2)n1)c1ccc(-c2ccccc2)cc1 [Example 64] | 11β-hsd-1 enzyme (Homo sapiens, UniProt P28845) | L |

###

Biological target: 11β-hsd-1 enzyme (Homo sapiens, UniProt P28845)
Assay: 11β-hsd-1 enzyme assay, Kiapp determination (3H-cortisone to cortisol, radio-HPLC)
Type: biochemical
Conditions: read-out: Ki app
reported-metric: Ki (µM)

| compound | unit-annotation | data-value |
| --- | --- | --- |
| Cc1cccc(NS(=O)(=O)c2ccc(-c3ccc(Cl)cc3Cl)cc2C)n1 | µM | 0.036 |
| Cc1cc(C)nc(NS(=O)(=O)c2ccc(-c3ccc(C#N)cc3)cc2)c1 | µM | 0.007 |
| N#Cc1ccc(-c2ccc(S(=O)(=O)Nc3cccc(CCO)n3)cc2)cc1 | µM | 0.0262 |
| N#Cc1ccc(-c2ccc(S(=O)(=O)Nc3cccc(C4CC4)n3)cc2)cc1 | µM | 0.0019 |
| Cc1cccc(NS(=O)(=O)c2ccc(-c3ccccc3O)cc2C)n1 | µM | 0.053 |
| CCc1ccc(-c2ccc(S(=O)(=O)Nc3cccc(C)n3)c(C)c2)cc1 | µM | 0.011 |
| Cc1cccc(NS(=O)(=O)c2cccc(Cl)c2C)n1 [Example 34] | µM | 0.169 |
| Cc1cccc(NS(=O)(=O)c2ccc(-c3cccc(C#N)c3)cc2C)n1 | µM | 0.02 |
| Cc1cccc(NS(=O)(=O)c2ccc(-c3cc(Cl)cc(Cl)c3)cc2C)n1 | µM | 0.0032 |
| Cc1cccc(NS(=O)(=O)c2ccc(-c3ccc(F)cc3F)cc2C)n1 | µM | 0.0062 |
| CCOc1ccc(-c2ccc(S(=O)(=O)Nc3cccc(C)n3)c(C)c2)cc1 | µM | 0.015 |
| Cc1cccc(NS(=O)(=O)c2ccc3ccccc3c2)n1 | µM | 0.084 |
| Cc1cccc(NS(=O)(=O)c2ccc(-c3ccccc3C#N)cc2C)n1 | µM | 0.017 |
| COc1ccc(-c2ccc(S(=O)(=O)Nc3cccc(C)n3)c(C)c2)cc1F | µM | 0.0095 |
| Cc1cccc(NS(=O)(=O)c2ccc(-c3ccc(F)c(C)c3)cc2C)n1 | µM | 0.014 |
| Nc1cccc(NS(=O)(=O)c2ccc(-c3ccc(C(F)(F)F)cc3)cc2)n1 | µM | 0.0044 |
| CCN(CC)C(=O)Cc1cccc(NS(=O)(=O)c2sc3ccc(Cl)cc3c2C)n1 | µM | 0.0048 |
| CCOc1cccc(-c2ccc(S(=O)(=O)Nc3cccc(C)n3)c(C)c2)c1 | µM | 0.043 |
